All figures here come from PubChem BioAssay (NCATS).

# Experiment description: qHTS for Inhibitors of the Functional Ribonucleoprotein Complex (vRNP) of Lymphocytic Choriomeningitis Arenaviruses (LCMV): Viability assay - alamar blue signal for LCMV Primary Screen (AID 1347085); also: nearly all actives have a fitted effect of over 80% in size
# Condition description: alamar blue viability counter-screen, LCMV vRNP screen cells; series mostly up to 57.5 µM
Inconclusive results are not listed. Active and inactive are the calls of the source. Calls follow the shape of the full dose curve; tested in HEK293 reporter line.
Possible outcomes: 1.0 (active), 0.0 (inactive)

>  <Compound>
COc1ccc(CC2c3cc(OC)c(OC)cc3CCN2C)cc1O (configuration not stated)

>  <Label class>
0.0

$$$$
>  <Compound>
O=C(C=Cc1ccc(CN(CCO)CCc2c[nH]c3ccccc23)cc1)NO

>  <Label class>
1.0

$$$$
>  <Compound>
CCCCC[C@H](O)C=C[C@H]1[C@H](O)CC(=O)[C@H]1CCCCCCC(=O)O

>  <Label class>
0.0

$$$$
>  <Compound>
CCN1C[C@]2(C)CC[C@H](OC)[C@@]34[C@H]1C1(OCO[C@@]15C[C@H](OC)C1C[C@]3(O)C5[C@H]1OC)[C@@H](O)[C@H]24

>  <Label class>
0.0

$$$$
>  <Compound>
CCCCc1ccc(O)cc1

>  <Label class>
0.0

$$$$
>  <Compound>
CCCCCCCCO[C@@H]1O[C@H](CO)[C@@H](O)[C@H](O)[C@H]1O

>  <Label class>
0.0

$$$$
>  <Compound>
CC1(C)C[C@H]2C3=CCC4[C@@]5(C)CC[C@H](O)[C@](C)(CO)C5CC[C@@]4(C)[C@]3(C)C[C@H]3O[C@@H]1[C@H](O)[C@]32CO (some centres not stated)

>  <Label class>
0.0

$$$$
>  <Compound>
CO/S(=N\S(=O)(=O)c1ccc(Cl)cc1)c1ccc([N+](=O)[O-])cc1 (configuration not stated)

>  <Label class>
0.0

$$$$
>  <Compound>
C[C@@]1(C(=O)Nc2ccc(F)nc2)CCCN1c1nc(Nc2cc(C3CC3)[nH]n2)c2cccn2n1

>  <Label class>
1.0

$$$$
>  <Compound>
CNc1ncnc2c1ncn2[C@H]1C[C@H](OP(=O)(O)O)[C@@H](COP(=O)(O)O)O1

>  <Label class>
0.0

$$$$
>  <Compound>
FC(F)c1nc2ccccc2n1-c1nc(N2CCOCC2)nc(N2CCOCC2)n1

>  <Label class>
1.0

$$$$
>  <Compound>
CC(=O)OCC(=O)[C@@]12N=C(C)O[C@H]1C[C@H]1[C@@H]3CCC4=CC(=O)C=C[C@]4(C)[C@@H]3[C@@H](O)C[C@@]12C

>  <Label class>
0.0

$$$$
>  <Compound>
Cc1ccc(C(=O)N(CCCN)[C@@H](c2oc3cc(Cl)ccc3c(=O)c2Cc2ccccc2)C(C)C)cc1

>  <Label class>
0.0

$$$$
>  <Compound>
Fc1ccc(C(c2ccc(F)cc2)N2CCN(CC=Cc3ccccc3)CC2)cc1

>  <Label class>
0.0

$$$$
>  <Compound>
NC(=S)NCCC[C@H](N)C(=O)O

>  <Label class>
0.0

$$$$
>  <Compound>
C=C1C(=O)OC2C=C(C)CCC=C(C)CCC12 (configuration not stated)

>  <Label class>
0.0

$$$$
>  <Compound>
O=C(O)CO.[NH2-].[NH2-].[Pt+2]

>  <Label class>
0.0

$$$$
>  <Compound>
O=C(O)CC[C@@H](C(=O)O)N1C(=O)c2ccccc2C1=O

>  <Label class>
0.0

$$$$
>  <Compound>
CCOC(=O)C1=C(O)C(=O)N(Cc2ccccc2)C1

>  <Label class>
0.0

$$$$
>  <Compound>
O=C(O)CCCc1c[nH]c2ccccc12

>  <Label class>
0.0

$$$$
>  <Compound>
O=S(=O)(O)c1ccc2cc(N=Nc3cc(S(=O)(=O)O)c4cccnc4c3O)ccc2c1

>  <Label class>
0.0

$$$$
>  <Compound>
O=C1NC(=O)[C@@H](c2cn3c4c(cccc24)CCC3)[C@H]1c1c[nH]c2ccccc12

>  <Label class>
1.0

$$$$
>  <Compound>
CC1=C[C@H]2[C@]3(O)C(C=C(CO)C[C@]2(O)C1=O)[C@@H]1C(C)(C)[C@]1(O)[C@H](O)[C@H]3C (some centres not stated)

>  <Label class>
0.0

$$$$
>  <Compound>
CC(C)(O)[C@H](O)Cc1cc2ccc(=O)oc2cc1O[C@@H]1O[C@H](CO)[C@@H](O)[C@H](O)[C@H]1O

>  <Label class>
0.0

$$$$
>  <Compound>
C/C=C(/CC[C@@H](C)[C@H]1CC[C@H]2C3=CC[C@H]4[C@H](C)[C@@H](O)CC[C@]4(C)[C@H]3CC[C@]12C)C(C)C

>  <Label class>
0.0

$$$$
>  <Compound>
O=C(O)c1cc(N(Cc2ccccc2O)Cc2ccccc2O)ccc1O

>  <Label class>
0.0

$$$$
>  <Compound>
CCc1ccc(C=C2SC(=S)NC2=O)cc1

>  <Label class>
0.0

$$$$
>  <Compound>
CC1=CC(=O)C2=C(C)C[C@@H]3OC(=O)[C@@H](C)[C@H]3C=C12

>  <Label class>
0.0

$$$$
>  <Compound>
CC(C)NCC(O)COc1cccc2ccccc12 (configuration not stated)

>  <Label class>
0.0

$$$$
>  <Compound>
COc1ccc2c(=O)c(-c3ccc(OC)c(OC)c3)coc2c1

>  <Label class>
0.0

$$$$
>  <Compound>
Ic1ccc(N2CCN(Cc3c[nH]c4ncccc34)CC2)cc1

>  <Label class>
0.0

$$$$
>  <Compound>
C1CCC2(CCCCO2)OC1

>  <Label class>
0.0

$$$$
>  <Compound>
C[C@H](CCC(=O)O)[C@H]1CC[C@H]2[C@@H]3CC[C@@H]4C[C@H](O)CC[C@]4(C)[C@H]3CC[C@]12C

>  <Label class>
0.0

$$$$
>  <Compound>
CCCCCCCCCC=O

>  <Label class>
0.0

$$$$
>  <Compound>
COc1cc(C)c(C(=O)Oc2cc(C)c(C(=O)O)c(O)c2C)c(OC)c1C

>  <Label class>
0.0

$$$$
>  <Compound>
CNCC(N)C(=O)O (configuration not stated)

>  <Label class>
0.0

$$$$
>  <Compound>
CC1(C)CCC2=C(O1)c1ccccc1C(=O)C2=O

>  <Label class>
0.0

$$$$
>  <Compound>
CC(C)(C)c1ccccc1

>  <Label class>
0.0

$$$$
>  <Compound>
c1ccc2c(c1)CCC[C@H]2Nc1nc2ccccc2[nH]1

>  <Label class>
0.0

$$$$
>  <Compound>
Oc1cc(O)cc(/C=C/c2ccc(O)c(O)c2)c1

>  <Label class>
0.0

$$$$
>  <Compound>
CC(C)N1[N]C(=C2C=c3cc(O)ccc3=N2)c2c(N)ncnc21

>  <Label class>
1.0

$$$$
>  <Compound>
CC1CCC[C@H](O)CCCCCc2cc(O)cc(O)c2C(=O)O1 (some centres not stated)

>  <Label class>
0.0

$$$$
